Molecular target: T1, orthogonal hCD122 receptor (hoRb), hCD122 with H133D and Y134F (human, UniProt P14784 27-550)
T1 sequence: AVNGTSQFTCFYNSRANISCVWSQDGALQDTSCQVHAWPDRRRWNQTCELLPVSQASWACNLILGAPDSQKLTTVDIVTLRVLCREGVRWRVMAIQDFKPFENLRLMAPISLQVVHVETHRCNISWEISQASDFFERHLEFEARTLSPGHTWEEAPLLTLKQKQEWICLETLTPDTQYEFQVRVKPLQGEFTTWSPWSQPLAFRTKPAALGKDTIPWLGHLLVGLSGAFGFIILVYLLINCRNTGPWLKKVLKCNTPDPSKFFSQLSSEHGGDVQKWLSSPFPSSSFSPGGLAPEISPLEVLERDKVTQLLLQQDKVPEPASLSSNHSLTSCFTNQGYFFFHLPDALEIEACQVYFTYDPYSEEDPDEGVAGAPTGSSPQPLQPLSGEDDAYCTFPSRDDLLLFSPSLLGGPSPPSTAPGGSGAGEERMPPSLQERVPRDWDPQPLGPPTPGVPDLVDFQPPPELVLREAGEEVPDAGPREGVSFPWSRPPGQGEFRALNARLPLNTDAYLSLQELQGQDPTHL
Assay: cell-based or functional assay
METRIC_NAME: NKL Ortho Proliferation Signal 1:50

BINDER	OBSERVED
ΔL14, SQVLKA (ligand) APTSSSTKKTQLQSQLLVLLKAILNGINNYKNPKLTRMLTFKFYMPKKATELKHLQCLEEELKPLEEVLNLAQSKNFHLRPRDLISNINVIVLELKGSETTFMCEYADETATIVEFLNRWITFCQSIISTLT	12200
TQVLKA (ligand) APTSSSTKKTQLQLTQLLVLLKAILNGINNYKNPKLTRMLTFKFYMPKKATELKHLQCLEEELKPLEEVLNLAQSKNFHLRPRDLISNINVIVLELKGSETTFMCEYADETATIVEFLNRWITFCQSIISTLT	27800
ΔG27, SQVLKA (ligand) APTSSSTKKTQLQLSQLLVLLKAILNINNYKNPKLTRMLTFKFYMPKKATELKHLQCLEEELKPLEEVLNLAQSKNFHLRPRDLISNINVIVLELKGSETTFMCEYADETATIVEFLNRWITFCQSIISTLT	14600
T51I, SQVLKA (ligand) APTSSSTKKTQLQLSQLLVLLKAILNGINNYKNPKLTRMLTFKFYMPKKAIELKHLQCLEEELKPLEEVLNLAQSKNFHLRPRDLISNINVIVLELKGSETTFMCEYADETATIVEFLNRWITFCQSIISTLT	18500
